Tested on: MDA-MB-231
Assay: Cytotoxicity / anti-proliferation assay (CCK-8), MDA-MB-231
Type: cell-based
Conditions: Homo sapiens, 72 h, CCK-8 kit, read-out: EC50 MDA-MB-231
We begin with a simple list: items and their reported EC50.
// return numeric value only (unit: µM, not printed)

{"COMPOUND": "CN1CCCN(c2nc(NC3CCN(Cc4ccccc4)CC3)c3ccc(OCCCCCCC(=O)NO)cc3n2)CC1", "EC50 (µM)": 24}

Now consider a different compound.
Recorded EC50 for O=C(CCCCCCC(=O)Nc1ccccc1)NO [SAHA, N-hydroxy-N′-phenyl-octanediamide] , please?
2.87

###

Biological target: G9a (Homo sapiens, UniProt Q96KQ7)
Construct: endogenous in cells
Sequence (Q96KQ7 whole entry): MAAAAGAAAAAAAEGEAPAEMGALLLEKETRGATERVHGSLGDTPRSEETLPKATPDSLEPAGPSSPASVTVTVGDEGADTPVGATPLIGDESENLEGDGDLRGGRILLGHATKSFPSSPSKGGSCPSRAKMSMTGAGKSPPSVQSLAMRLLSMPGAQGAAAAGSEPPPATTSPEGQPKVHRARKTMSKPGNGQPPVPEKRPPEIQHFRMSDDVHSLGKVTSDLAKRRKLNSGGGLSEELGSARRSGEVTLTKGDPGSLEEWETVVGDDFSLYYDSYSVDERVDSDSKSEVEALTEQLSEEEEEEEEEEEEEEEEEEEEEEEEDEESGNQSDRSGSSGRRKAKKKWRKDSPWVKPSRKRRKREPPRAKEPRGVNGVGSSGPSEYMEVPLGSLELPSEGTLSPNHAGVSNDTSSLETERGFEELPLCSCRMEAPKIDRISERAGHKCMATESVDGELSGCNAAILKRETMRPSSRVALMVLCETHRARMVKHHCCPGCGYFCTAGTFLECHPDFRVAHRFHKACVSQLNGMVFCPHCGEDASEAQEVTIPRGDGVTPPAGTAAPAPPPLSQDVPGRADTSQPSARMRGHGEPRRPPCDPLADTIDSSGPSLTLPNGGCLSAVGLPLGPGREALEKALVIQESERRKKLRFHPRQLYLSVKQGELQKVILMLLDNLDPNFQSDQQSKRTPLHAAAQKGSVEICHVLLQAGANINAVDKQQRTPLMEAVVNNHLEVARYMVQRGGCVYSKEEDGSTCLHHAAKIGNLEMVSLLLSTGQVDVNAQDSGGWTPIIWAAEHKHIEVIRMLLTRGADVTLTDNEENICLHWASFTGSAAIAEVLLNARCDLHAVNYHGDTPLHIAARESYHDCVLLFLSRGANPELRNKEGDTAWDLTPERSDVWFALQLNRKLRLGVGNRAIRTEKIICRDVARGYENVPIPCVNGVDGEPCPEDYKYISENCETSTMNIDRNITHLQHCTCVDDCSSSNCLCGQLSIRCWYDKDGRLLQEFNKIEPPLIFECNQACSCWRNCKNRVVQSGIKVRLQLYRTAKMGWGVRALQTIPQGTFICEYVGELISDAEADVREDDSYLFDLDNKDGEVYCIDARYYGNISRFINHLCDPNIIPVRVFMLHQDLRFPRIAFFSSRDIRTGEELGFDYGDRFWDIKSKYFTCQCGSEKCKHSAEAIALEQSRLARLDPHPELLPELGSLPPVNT
Assay: H3K9Me2 cell immunofluorescence in-cell Western (ICW) assay
Conditions: MDA-MB-231 cell line, 48 h
We begin with a simple list: items and their reported pIC50.
pIC50 here is simply -log10 of the concentration when that concentration is written in mol/L.

Examples from the recorded data:
{"COMPOUND": "COc1ccc2c(NCCNC(=O)CCCCCC(=O)NO)nc(N3CCCN(C)CC3)nc2c1 [Compound 22]", "pIC50": 4.22}
{"COMPOUND": "COc1cc2nc(NCCNC(=O)CCCC(=O)NO)nc(NC3CCN(C)CC3)c2cc1OC [Compound 7]", "pIC50": 4.11}
{"COMPOUND": "COc1ccc2c(NC3CCN(Cc4ccccc4)CC3)nc(NCCNC(=O)CCCCCC(=O)NO)nc2c1 [Compound 14]", "pIC50": 5.15}
{"COMPOUND": "COc1ccc2c(NC3CCN(Cc4ccccc4)CC3)nc(NCCNC(=O)CCCC(=O)NO)nc2c1 [Compound 16]", "pIC50": 4.04}
{"COMPOUND": "COc1cc2nc(N3CCCN(C)CC3)nc(NC3CCN(C(=O)CCCCCCC(=O)NO)CC3)c2cc1OC [Compound 19]", "pIC50": 4.00}
{"COMPOUND": "COc1ccc2c(NC3CCN(Cc4ccccc4)CC3)nc(NCCNC(=O)CCCCC(=O)NO)nc2c1 [Compound 15]", "pIC50": 4.14}
{"COMPOUND": "COc1cc2nc(NCCNC(=O)CCCC(=O)NO)nc(NC3CCN(C(C)C)CC3)c2cc1OC [Compound 7a]", "pIC50": 4.26}
{"COMPOUND": "COc1ccc2c(NC3CCN(Cc4ccccc4)CC3)nc(NCCNC(=O)CCCCCCC(=O)NO)nc2c1 [Compound 13]", "pIC50": 4.42}
{"COMPOUND": "COc1cc2nc(NCCNC(=O)CCCCCC(=O)NO)nc(NC3CCN(Cc4ccccc4)CC3)c2cc1OC [Compound 5b]", "pIC50": 4.06}
{"COMPOUND": "COc1ccc2c(NC3CCN(C)CC3)nc(NCCNC(=O)CCCCC(=O)NO)nc2c1 [Compound 15a]", "pIC50": 4.33}

Recorded pIC50 for COc1cc2c(NC3CCN(C(C)C)CC3)nc(N3CCCN(C)CC3)nc2cc1OCCCCCCC(=O)NO [Compound 26] , please?
4.56

Now consider COc1cc2nc(NCCNC(=O)CCCCCC(=O)NO)nc(NC3CCN(C(C)C)CC3)c2cc1OC [Compound 5a] and answer again.
4.18

Now consider COc1ccc2c(NC3CCN(C)CC3)nc(NCCNC(=O)CCCCCC(=O)NO)nc2c1 [Compound 14a] and answer again.
4.33

Where do the numbers come from? From patent US20190322643A1.
